The origin of these recorded values is patent US20220396620A1.

Molecular target: T1, human cannabinoid receptor type 1 (CB1) (human, UniProt P21554 1-472)
T1 construct: DiscoverX cAMP Hunter CHO-K1 CNR1 Gi cells for cAMP and pERK assays; also called huCB1; huCB-1
T1 sequence (P21554 whole entry): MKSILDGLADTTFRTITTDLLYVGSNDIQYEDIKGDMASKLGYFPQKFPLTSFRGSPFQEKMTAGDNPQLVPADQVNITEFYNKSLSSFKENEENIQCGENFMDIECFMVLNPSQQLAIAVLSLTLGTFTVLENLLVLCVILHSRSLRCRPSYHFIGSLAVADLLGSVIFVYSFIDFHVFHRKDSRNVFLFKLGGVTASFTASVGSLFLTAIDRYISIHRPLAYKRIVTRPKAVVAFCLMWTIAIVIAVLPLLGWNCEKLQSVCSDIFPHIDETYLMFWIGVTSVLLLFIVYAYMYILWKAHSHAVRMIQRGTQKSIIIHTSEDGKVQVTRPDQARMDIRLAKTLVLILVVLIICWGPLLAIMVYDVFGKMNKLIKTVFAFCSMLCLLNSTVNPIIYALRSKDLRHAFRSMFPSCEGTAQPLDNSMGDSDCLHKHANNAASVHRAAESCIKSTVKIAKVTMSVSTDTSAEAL
Experiment: flow cytometry, single point at 30 ug/mL antibody, signal on CHO-huCB-1 cells relative to CHO parental cells

BINDER	binding result
M7-H8 humanized anti-CB1 antibody (antibody, human IgG1, kappa, L234A L235A, V domains shown) VH: QVQLVQSGAEVKKPGASVKLSCKASSYTFTRYWMNWVRQAPGQGLEWIGMIDPYDSETHYNQKFQGRATLTVDTSTSTAYMELSSLRSEDTAVYFCARSQPRYYAMDYWGQGTTVTVSS VL: DIQMTQSPSSLSASLGDRVTLTCRASQEISGFLSWLQLKPGKTIKRLIYAASSLDSGVPSRFSGSWSGTDYTLTISSLQPEDFADYYCLQYSSYPYTFGGGTKLEIKR	binds
M7-H15 humanized anti-CB1 antibody (antibody, human IgG1, kappa, L234A L235A, V domains shown) VH: QVQLVQSGAEVKKPGASVKVSCKASSYTFTRYWMNWVKQRPGEGLEWMGMIDPYDSETHYNQKFQGKVTMTVDKSSSTVYMELSSLRSEDTAVYFCARSQPRYYAMDYWGQGTTVTVSS VL: DIQMTQSPSSLSASVGDRVTLTCRASQEISGFLSWLQLKPGKAIKRLIYAASSLDSGVPSRFSGSWSGTDYTLTISSLQPEDFADYYCLQYSSYPYTFGGGTKLEIKR	binds
M7-H10 humanized anti-CB1 antibody (antibody, human IgG1, kappa, L234A L235A, V domains shown) VH: QVQLVQSGAEVKKPGASVKVSCKASSYTFTRYWMNWVKQRPGEGLEWMGMIDPYDSETHYNQKFQGKVTMTVDKSSSTVYMELSSLRSEDTAVYFCARSQPRYYAMDYWGQGTTVTVSS VL: DIQMTQSPSSLSASLGDRVTLTCRASQEISGFLSWLQLKPGKTIKRLIYAASSLDSGVPSRFSGSWSGTDYTLTISSLQPEDFADYYCLQYSSYPYTFGGGTKLEIKR	binds
M7-H11 humanized anti-CB1 antibody (antibody, human IgG1, kappa, L234A L235A, V domains shown) VH: QVQLVQSGAEVKKPGASVKVSCKASSYTFTRYWMNWVRQAPGQGLEWMGIIDPYDSETSYAQKFQGRVTMTRDTSTSTVYMELSSLRSEDTAVYYCARSQPRYYAMDYWGQGTTVTVSS VL: DIQMTQSPSSLSASLGDRVTLTCRASQEISGFLSWLQLKPGKTIKRLIYAASSLDSGVPSRFSGSWSGTDYTLTISSLQPEDFADYYCLQYSSYPYTFGGGTKLEIKR	binds
